Assay: pKa of CHP hydrate material
Format: physicochemical
Details: characterising feature (b)
Experimental Readout: pKa

# return recorded pKa for input O=C1N[C@@H](Cc2cnc[nH]2)C(=O)N2CCC[C@@H]12 [CHP hydrate, cyclo(-His-Pro) hydrate] ~6.4

meta.source: patent US12053467B2
